target: MsJHEH (Manduca sexta, UniProt Q25489); test: Fluorescent substrate assay, MsJHEH; assay type: biochemical; details: 50 mM Tris-HCl, pH 8.0, 5 μM substrate (25 μM for CMNGC), 100 μM OTFP, 1% DMSO, 0.1 mg ml^−1 BSA, 30°C
Sequence (Q25489 whole entry): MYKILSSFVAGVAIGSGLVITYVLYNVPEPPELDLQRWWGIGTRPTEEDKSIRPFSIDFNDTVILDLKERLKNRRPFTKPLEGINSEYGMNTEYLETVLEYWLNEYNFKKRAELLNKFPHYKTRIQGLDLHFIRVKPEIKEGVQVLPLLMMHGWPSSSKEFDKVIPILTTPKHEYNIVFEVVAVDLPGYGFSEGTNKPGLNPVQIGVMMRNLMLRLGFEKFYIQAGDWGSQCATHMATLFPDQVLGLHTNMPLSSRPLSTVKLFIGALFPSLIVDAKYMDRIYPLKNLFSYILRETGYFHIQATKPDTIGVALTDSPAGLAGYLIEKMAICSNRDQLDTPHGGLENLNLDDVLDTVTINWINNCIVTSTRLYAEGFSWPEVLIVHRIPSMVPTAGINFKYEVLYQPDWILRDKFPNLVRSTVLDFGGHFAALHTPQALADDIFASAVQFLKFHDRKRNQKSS
Each entry gets Not satisfied if its Specific Activity MsJHEH with fluorescent substrates stays under 3 nmol/min/mg, and Satisfied if its Specific Activity MsJHEH with fluorescent substrates is 3 nmol/min/mg or above.

stdin: Does Specific Activity MsJHEH with fluorescent substrates meet or surpass 3 nmol/min/mg for COc1ccc2cc(C(C#N)OC(=O)OCC3OC3(C)C)ccc2c1 (stereo not drawn) ?
stdout: Not satisfied

stdin: Is reported Specific Activity MsJHEH with fluorescent substrates greater than or equal to 3 nmol/min/mg here: COc1ccc2cc(C(C#N)OC(=O)OC[C@@H]3O[C@H]3c3ccccc3)ccc2c1 (relative stereo)
stdout: Satisfied

stdin: Does CCC[C@@H]1O[C@H]1CC(=O)OC(C#N)c1ccc2cc(OC)ccc2c1 (relative stereo) have a reported Specific Activity MsJHEH with fluorescent substrates of at least 3 nmol/min/mg?
stdout: Satisfied

stdin: Record COc1ccc2cc(C(C#N)OC(=O)OCC3CO3)ccc2c1 (stereo not drawn) ; criterion: Specific Activity MsJHEH with fluorescent substrates no lower than 3 nmol/min/mg. Met?
stdout: Satisfied

stdin: For this compound, is measured Specific Activity MsJHEH with fluorescent substrates 3 nmol/min/mg or higher? COc1ccc2cc(C(C#N)OC(=O)C[C@@H]3O[C@H]3c3ccccc3)ccc2c1 (relative stereo)
stdout: Satisfied

stdin: Hi team, for CC[C@@H]1O[C@H]1COC(=O)OC(C#N)c1ccc2cc(OC)ccc2c1 (relative stereo) , is the recorded Specific Activity MsJHEH with fluorescent substrates at or above 3 nmol/min/mg?
stdout: Not satisfied

###

target: Hv-mEH1 (Chloridea virescens, UniProt L7R9X8); experiment: Fluorescent substrate assay, Hv-mEH1; assay type: biochemical, Heliothis virescens; conditions: 50 mM Tris-HCl, pH 8.0, 5 μM substrate (25 μM for CMNGC), 100 μM OTFP, 1% DMSO, 0.1 mg ml^−1 BSA, 30°C
measured property: Specific Activity Hv-mEH1 with fluorescent substrates (nmol/min/mg)
Numbers only, in nmol/min/mg.

Past entries and their recorded results:
stdin: Look up and report measured Specific Activity Hv-mEH1 with fluorescent substrates for this entry: COc1ccc2cc(C(C#N)OC(=O)OCC3CO3)ccc2c1 (stereo not drawn)
stdout: 0.03

stdin: Answer with reported Specific Activity Hv-mEH1 with fluorescent substrates of CC[C@@H]1O[C@H]1COC(=O)OC(C#N)c1ccc2cc(OC)ccc2c1 (relative stereo)
stdout: 122

stdin: Output measured Specific Activity Hv-mEH1 with fluorescent substrates for this item: COc1ccc2cc(C(C#N)OC(=O)C[C@@H]3O[C@H]3c3ccccc3)ccc2c1 (relative stereo)
stdout: 138

Batch of 2 compounds: report Specific Activity Hv-mEH1 with fluorescent substrates for each.
1. COc1ccc2cc(C(C#N)OC(=O)OC[C@@H]3O[C@H]3c3ccccc3)ccc2c1 (relative stereo)
2. COc1ccc2cc(C(C#N)OC(=O)OCC3OC3(C)C)ccc2c1 (stereo not drawn)

stdout:
1. 816
2. 3.7
